# credit: ChEMBL document CHEMBL4190161

# Assay Method Text: Antioxidant activity assessed as trolox equivalent of hydroxyl radical scavenging activity up to 25 mg/ml measured after 60 mins by fenton reaction method
# Type: functional
Active and inactive are the calls of the source. No cut-off for these calls is given here. Residues, ends and D or L forms follow the SMILES beside them.
Log the outcome using a class from Yes for active, No for inactive

| Molecule | Class Assignment |
| --- | --- |
| O=C(O)CNC(=O)[C@H](CS)NC(=O)[C@@H]1CCCN1 (H-Pro-Cys-Gly-OH) | Yes |
| CC(C)C[C@H](NC(=O)[C@H](CCC(=O)O)NC(=O)CN)C(=O)O (H-Gly-Glu-Leu-OH) | No |
| CC(C)C[C@H](NC(=O)[C@@H](N)CCCCN)C(=O)N[C@@H](CCC(=O)O)C(=O)O (H-Lys-Leu-Glu-OH) | No |

// next entry
Enquiry: Hey, what did the test say about CC(C)C[C@H](NC(=O)[C@H](CCCCN)NC(=O)[C@@H](N)Cc1ccccc1)C(=O)O (H-Phe-Lys-Leu-OH) ?
Return: Yes

----------
# Assay Method Text: Antioxidant activity of the compound in phosphate buffer at pH 7.4 assessed as trolox equivalent of AAPH-induced peroxyl radical scavenging activity at 6 uM pretreated for 2 mins followed by AAPH addition measured at 2 mins interval for 108 minutes by ORAC-FL assay
# Type: functional
Residues, ends and D or L forms follow the SMILES beside them.
Would you mind labelling by Activity (umolequiv/umol)? At or over 0.2 is yes, under is no.

| Compound | Class Assignment |
| --- | --- |
| N[C@@H](Cc1ccc(O)cc1)C(=O)N[C@@H](CCC(=O)O)C(=O)NCC(=O)O (H-Tyr-Glu-Gly-OH) | yes |
| CC(C)C[C@H](N)C(=O)N[C@@H](Cc1cnc[nH]1)C(=O)NCC(=O)O (H-Leu-His-Gly-OH) | no |
| CC(C)C[C@H](NC(=O)[C@H](Cc1cnc[nH]1)NC(=O)[C@@H](N)Cc1ccc(O)cc1)C(=O)O | yes |

Enquiry: Does the reported Activity (umolequiv/umol) for N[C@@H](CCC(=O)N[C@@H](CS)C(=O)NCC(=O)O)C(=O)O fall at or above the 0.2 mark?
Return: yes

Enquiry: Say whether CC(C)[C@H](NC(=O)[C@@H](N)CCCCN)C(=O)N[C@@H](Cc1cnc[nH]1)C(=O)O (H-Lys-Val-His-OH) shows Activity (umolequiv/umol) of 0.2 or more.
Return: no

Enquiry: API: above_or_equal(metric=Activity (umolequiv/umol), cutoff=0.2) for item N[C@@H](CCC(=O)O)C(=O)N[C@@H](CS)C(=O)N[C@@H](Cc1cnc[nH]1)C(=O)O (H-Glu-Cys-His-OH)
Return: no

Enquiry: Is reported Activity (umolequiv/umol) greater than or equal to 0.2 here: CC(C)C[C@H](NC(=O)[C@H](CCCCN)NC(=O)[C@@H](N)Cc1ccccc1)C(=O)O (H-Phe-Lys-Leu-OH)
Return: no

Enquiry: Record CC(C)C[C@H](NC(=O)[C@@H](N)CCCCN)C(=O)N[C@@H](CCC(=O)O)C(=O)O (H-Lys-Leu-Glu-OH) ; criterion: Activity (umolequiv/umol) no lower than 0.2. Met?
Return: no

Enquiry: Given the entry CC(C)C[C@H](NC(=O)[C@H](CCC(=O)O)NC(=O)CN)C(=O)O (H-Gly-Glu-Leu-OH) , answer whether its Activity (umolequiv/umol) meets or surpasses 0.2.
Return: no
